# PARTICULARS: buffer; pH 7.4; 200.0 µM
TEST READOUT: solubility kinetic

[[record]]
compound = "CC[C@H](C)[C@H](NC(N)=O)C(=O)Nc1ccccc1F"
test_readout = "solubility kinetic"
result = "> 40.1 µg/mL"

[[record]]
compound = "Cc1ccccc1CC(=O)NCc1cccnc1"
test_readout = "solubility kinetic"
result = "> 36 µg/mL"

[[record]]
compound = "O=C(COC(=O)c1cc(S(=O)(=O)N2CCOCC2)ccc1F)Nc1cc([N+](=O)[O-])ccc1F"
test_readout = "solubility kinetic"
result = "7.4 µg/mL"

[[record]]
compound = "FC(F)(F)c1cnc2c(c1)[nH]c(=S)n2-c1ccc(Cl)cc1"
test_readout = "solubility kinetic"
result = "3 µg/mL"

[[record]]
compound = "Cc1ccc(S(=O)(=O)NCC(=O)OCC(=O)NC2CCCCC2)cc1"
test_readout = "solubility kinetic"
result = "> 55.3 µg/mL"

[[record]]
compound = "CCn1c(NC(=O)C(C)C)c(-c2cccs2)c(=O)c2ccccc21"
test_readout = "solubility kinetic"
result = "> 51.1 µg/mL"

[[record]]
compound = "NC(CS(=O)O)C(=O)O (stereo unspecified)"
test_readout = "solubility kinetic"
result = "> 23 µg/mL"

[[record]]
compound = "CCOC(=O)Cc1csc(NC(=O)c2ccc(F)cc2)n1"
test_readout = "solubility kinetic"
result = "> 46.2 µg/mL"

[[record]]
compound = "Cc1ccc(C(=O)CN2C(=O)C(C)Oc3ccccc32)cc1 (stereo unspecified)"
test_readout = "solubility kinetic"
result = "21.6 µg/mL"

[[record]]
compound = "Cc1[nH]c(=O)[nH]c(=O)c1S(=O)(=O)N1CCCCC1"
test_readout = "solubility kinetic"
result = "> 41 µg/mL"

[[record]]
compound = "CC(NC(=O)c1ccco1)c1nc(-c2ccc(C(C)(C)C)cc2)no1 (stereo unspecified)"
test_readout = "solubility kinetic"
result = "0.9 µg/mL"


###

In this section we review reported solubility kinetic values for a set of compounds.
# PARTICULARS: buffer; pH 7.4; 200.0 µM
TEST READOUT: solubility kinetic (µg/mL)

[[record]]
compound = "COc1ccccc1C(=O)C1CCCN(Cc2cccc3nccnc23)C1 (stereo unspecified)"
unit_abbrev = "µg/mL"
bound_sign = "="
numeric_value = 39.5

[[record]]
compound = "N#Cc1ccccc1CCN1C(=O)c2ccccc2C1=O"
unit_abbrev = "µg/mL"
bound_sign = "="
numeric_value = 19.6

[[record]]
compound = "COc1ccc(CN(C)C(=S)Nc2ccc(Cl)cc2)cc1"
unit_abbrev = "µg/mL"
bound_sign = "="
numeric_value = 13.5

[[record]]
compound = "O=C1C2CCN(CC2)C12CC2c1ccc(C(F)(F)F)cc1 (stereo unspecified)"
unit_abbrev = "µg/mL"
bound_sign = "="
numeric_value = 23.9

[[record]]
compound = "O=S(=O)(Nc1ccc(Br)cc1)c1cccc2nonc12"
unit_abbrev = "µg/mL"
bound_sign = ">"
numeric_value = 53.1

[[record]]
compound = "Cc1ccccc1OCc1ccc(C(=O)N2CCOCC2)o1"
unit_abbrev = "µg/mL"
bound_sign = "="
numeric_value = 41.2

[[record]]
compound = "O=C(COC(=O)CCN1C(=O)C2CC=CCC2C1=O)Nc1ccc([N+](=O)[O-])cc1 (stereo unspecified)"
unit_abbrev = "µg/mL"
bound_sign = ">"
numeric_value = 60.2

[[record]]
compound = "COc1ccccc1CNC(=O)c1[nH]c(C)c(C(C)=O)c1C"
unit_abbrev = "µg/mL"
bound_sign = "="
numeric_value = 13.3

[[record]]
compound = "O=C(COC(=O)Cc1ccc(S(=O)(=O)N2CCOCC2)s1)Nc1ccc(OC(F)F)cc1"
unit_abbrev = "µg/mL"
bound_sign = "="
numeric_value = 63.7

[[record]]
compound = "Cc1ccc(C(=O)NC2CCCc3ccccc32)cc1[N+](=O)[O-] (stereo unspecified)"
unit_abbrev = "µg/mL"
bound_sign = "="
numeric_value = 9.3

[[record]]
compound = "O=C(NCC1CCCO1)c1c(O)nc2sccn2c1=O (stereo unspecified)"
unit_abbrev = "µg/mL"
bound_sign = ">"
numeric_value = 44.3


###

# PARTICULARS: buffer; pH 7.4; 200.0 µM
TEST READOUT: solubility kinetic

[[record]]
structure_string = "CCc1nc2ccc(Cc3ccc4nc(CC)[nH]c4c3)cc2[nH]1"
result = "> 45.7 µg/mL"

[[record]]
structure_string = "C=CCNc1nc(N)c([N+](=O)[O-])c(NCCO)n1"
result = "> 38.1 µg/mL"

[[record]]
structure_string = "Cc1cc(C(=O)NCCN2CCOCC2)c2ccccc2n1"
result = "> 44.9 µg/mL"

[[record]]
structure_string = "CC(=O)N(C(C)=O)c1c(N2CCCC2)c2ccccc2oc1=O"
result = "46.1 µg/mL"

[[record]]
structure_string = "Cc1ccc(OCCCCN2CCc3ccccc3C2)c(C)c1.Cl"
result = "4.8 µg/mL"

[[record]]
structure_string = "Cc1ccc(-c2nc3ncccc3o2)cc1NC(=O)C(C)(C)C"
result = "44.4 µg/mL"


###

# PARTICULARS: buffer; pH 7.4; 200.0 µM
TEST READOUT: solubility kinetic (µg/mL)

[[record]]
molecule = "CCCCOc1ccc(C(=O)CCN2CCCCC2)cc1.Cl"
test_readout = "solubility kinetic"
unit_abbrev = "µg/mL"
bound_sign = ">"
numeric_value = 48.9

[[record]]
molecule = "O=C1CC(c2ccco2)Sc2ccccc2N1 (stereo unspecified)"
test_readout = "solubility kinetic"
unit_abbrev = "µg/mL"
bound_sign = ">"
numeric_value = 36.8

[[record]]
molecule = "Cc1cccc(NC(=O)COC(=O)c2cc(C)n(C3CC3)c2C)c1"
test_readout = "solubility kinetic"
unit_abbrev = "µg/mL"
bound_sign = "="
numeric_value = 9.7

[[record]]
molecule = "O=Cc1ccc(C(=O)OCC(=O)Nc2ccc(F)cc2F)cc1"
test_readout = "solubility kinetic"
unit_abbrev = "µg/mL"
bound_sign = "="
numeric_value = 3.7

[[record]]
molecule = "NC(CO)(CO)COCc1ccccc1"
test_readout = "solubility kinetic"
unit_abbrev = "µg/mL"
bound_sign = ">"
numeric_value = 31.7

[[record]]
molecule = "CCOC(=O)c1csc(NC(=O)c2cc(=O)c3ccccc3o2)n1"
test_readout = "solubility kinetic"
unit_abbrev = "µg/mL"
bound_sign = "="
numeric_value = 11.5


###

# PARTICULARS: buffer; pH 7.4; 200.0 µM
Label satisfied for high-side solubility kinetic (at or above 40 µg/mL) and not satisfied for low-side solubility kinetic (below it).

[[record]]
molecule = "O=C(Nc1cccc(C(F)(F)F)c1)OC1CN2CCC1CC2 (centres undefined)"
class = "satisfied"

[[record]]
molecule = "CCN1C(=O)CSC1=Nc1ccc(OC)cc1"
class = "not satisfied"

[[record]]
molecule = "COc1ccc(CC(=O)N2CCN(c3ccccc3OC)CC2)cc1OC"
class = "satisfied"

[[record]]
molecule = "Cc1sc2ncnc(NCC(c3ccccc3)N(C)C)c2c1C (centres undefined)"
class = "satisfied"

[[record]]
molecule = "O=C(COC(=O)c1ccccn1)Nc1cccc2ccccc12"
class = "satisfied"

[[record]]
molecule = "N=c1oc2ccccc2cc1C(=O)Nc1ccccc1"
class = "not satisfied"

[[record]]
molecule = "O=c1[nH]cccc1-c1nc2cc(Cl)ccc2n1Cc1ccccc1"
class = "not satisfied"

[[record]]
molecule = "COc1ccc(-c2cc(-c3ccco3)[nH]c(=O)c2C#N)cc1"
class = "not satisfied"

[[record]]
molecule = "O=C(NCc1ccccn1)C(=O)Nc1cc2c3c(c1)CC(=O)N3CCC2"
class = "satisfied"

[[record]]
molecule = "Cc1ccc(N2N=C(C(=O)O)CCC2=O)cc1Cl"
class = "satisfied"

[[record]]
molecule = "O=C(NC(=O)c1cnccc1C(F)(F)F)Nc1ccccc1"
class = "not satisfied"

[[record]]
molecule = "Cc1ccc(NC(=O)/C=C/C(=O)O)c(NC(=O)c2ccccc2)c1"
class = "satisfied"

[[record]]
molecule = "CC1CCCCC12NC(=O)N(CC(=O)OCC(=O)Nc1ccc(F)cc1[N+](=O)[O-])C2=O (centres undefined)"
class = "not satisfied"

[[record]]
molecule = "CC(NC(=O)COc1ccccc1)C(c1cccs1)N1CCCC1 (centres undefined)"
class = "satisfied"

[[record]]
molecule = "CCCSC1C(C)=C(C)C(=O)N1Cc1ccccc1 (centres undefined)"
class = "not satisfied"

[[record]]
molecule = "CC(Sc1nncn1C)C(=O)NCCC1=CCCCC1 (centres undefined)"
class = "satisfied"

[[record]]
molecule = "COc1ccc(/C=C/C(=O)NC(=S)N2CCN(C)CC2)cc1"
class = "satisfied"

[[record]]
molecule = "COc1ccccc1CNC(=O)COC(=O)/C=C/c1ccc2ccccc2n1"
class = "not satisfied"

[[record]]
molecule = "Cc1ccccc1Nc1nc(N)nc(COC(=O)c2c(C)noc2C)n1"
class = "satisfied"

[[record]]
molecule = "CCCCOc1ccc(C(=O)OCC(=O)c2c(N)n(C)c(=O)n(C)c2=O)cc1"
class = "not satisfied"

[[record]]
molecule = "CN(Cc1ccco1)S(=O)(=O)c1csc(C(N)=O)c1"
class = "satisfied"

[[record]]
molecule = "CCCC(=O)Nc1ccccc1NC(=O)c1ccc2c(c1)OCO2"
class = "satisfied"

[[record]]
molecule = "CN1CCN(c2ccc([N+](=O)[O-])c(SCCO)c2)CC1"
class = "satisfied"

